target: mutant MGL (Homo sapiens, UniProt Q99685, L169S/L176S); experiment: MGL ThermoFluor assay - mutant; assay type: binding; conditions: ThermoFluor thermal stability binding assay, read-out: MGL mutant ThermoFluor Kd
Sequence (Q99685 whole entry L169S/L176S): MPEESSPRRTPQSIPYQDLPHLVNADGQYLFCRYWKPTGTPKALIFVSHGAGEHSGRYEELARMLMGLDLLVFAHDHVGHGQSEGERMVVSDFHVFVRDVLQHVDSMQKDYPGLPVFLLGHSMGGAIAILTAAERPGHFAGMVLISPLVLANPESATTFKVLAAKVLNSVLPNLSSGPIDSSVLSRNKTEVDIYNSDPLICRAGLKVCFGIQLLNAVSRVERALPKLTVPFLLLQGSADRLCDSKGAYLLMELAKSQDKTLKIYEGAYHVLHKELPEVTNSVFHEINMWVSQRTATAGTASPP
Some molecules, each annotated with its measured log10 Kd.
measurement-name: log10 Kd (log10 of the value in nM)

molecular-string | log10 Kd
O=C(c1cscn1)N1CCN(C2CN(C(=O)c3sc4cc(C(F)(F)F)c(F)cc4c3Cl)C2)CC1 | 0.30
Cc1cc(-c2ccc(F)c(Cl)c2)ccc1C(=O)N1CC(N2CCN(C(=O)c3ccccc3)CC2)C1 | 1.43
O=C(c1ccc(OCc2cncc(Cl)c2)cc1)N1CC(N2CCN(C(=O)c3cscn3)CC2)C1 | 2.97
O=C(c1cn[nH]c1)N1CCN(C2CN(C(=O)c3ccc(-c4ccccc4)cc3)C2)CC1 | 3.92
O=C(c1ccc(-c2cccc(C(F)(F)F)c2)cc1)N1CC(N2CCN(C(=O)c3cscn3)CC2)C1 | 1.10
O=C(c1cc[nH]c1)N1CCN(C2CN(C(=O)c3ccc(-c4cccc(C(F)(F)F)c4)cc3)C2)CC1 | 1.20
O=C(c1ccc(-c2ccccc2)cc1)N1CC(N2CCN(C(=O)c3cnon3)CC2)C1 | 4.00
Cc1cn(-c2ccc(F)cc2)c2ccc(C(=O)N3CC(N4CCN(C(=O)c5nccs5)CC4)C3)cc12 | 0.00
CC(C)=Cc1c(C(=O)N2CC(N3CCN(C(=O)c4ccccc4)CC3)C2)sc2cc(C(F)(F)F)ccc12 | 0.30
O=C(c1ccc2c(c1)CCN(C(=O)C1CCC(F)(F)CC1)C2)N1CC(N2CCN(C(=O)c3nccs3)CC2)C1 | 2.27
O=C(c1ccc2c(c1)CCCN2C(=O)C1CC1)N1CC(N2CCN(C(=O)c3nccs3)CC2)C1 | 1.92
O=C(c1ccccc1)N1CCN(C2CN(C(=O)c3cc4cc(Cl)ccc4o3)C2)CC1 | 4.10
O=C(c1ccccc1)N1CCN(C2CN(C(=O)c3ccc(OCc4ccc(Cl)c(Cl)c4)c(Cl)c3)C2)CC1 | 1.61
O=C(c1ccccc1)N1CCN(C2CN(C(=O)c3ccc4oc(-c5ccccc5)nc4c3)C2)CC1 | 2.40
Cc1cc(-c2ccccc2)ccc1C(=O)N1CC(N2CCN(C(=O)c3cscn3)CC2)C1 | 2.51

---

biological target: mutant MGL (Homo sapiens, UniProt Q99685, L169S/L176S); test: MGL ThermoFluor assay - mutant; type: binding; settings: ThermoFluor concentration-response, read-out: MGL mutant ThermoFluor Kd

molecule | readout-unit | Kd
O=C(c1nccs1)N1CCN(C2CN(C(=O)c3nn(-c4ccc(Cl)cc4Cl)c4c3CCC/C4=C\c3ccc(Cl)cc3)C2)CC1 [Cpd 1018] | nM | 207
CC(C)(C)c1ccc(C(=O)N2CC(N3CCN(C(=O)c4nccs4)CC3)C2)cc1 [Cpd 672] | nM | 16
COc1ccc(-c2ccc(C(=O)N3CC(N4CCN(C(=O)c5ccccc5)CC4)C3)cc2)cc1 [Cpd 34] | nM | 588
Cc1c(Cc2ccc(C(F)(F)F)cc2)cccc1C(=O)N1CC(N2CCN(C(=O)c3ccns3)CC2)C1 [Cpd 1014] | nM | 903
O=C(c1cscn1)N1CCN(C2CN(C(=O)c3cc(-c4ccccc4)ccc3Cl)C2)CC1 [Cpd 1288] | nM | 2160
O=C(c1ccccc1)N1CCN(C2CN(C(=O)c3ccc(N4CCCCCC4)cc3)C2)CC1 [Cpd 41] | nM | 4
O=C(c1ccccc1)N1CCN(C2CN(C(=O)c3ccc(Oc4ccc(Cl)cn4)cc3)C2)CC1 [Cpd 520] | nM | 2000
O=C(c1ccccc1)N1CCN(C2CN(C(=O)c3ccc(-c4ccc(F)cc4)cc3)C2)CC1 [Cpd 33] | nM | 9.1
CCCn1ccc2cc(C(=O)N3CC(N4CCN(C(=O)c5ccccc5)CC4)C3)ccc21 [Cpd 42] | nM | 83.3
Cc1ccc2c(C(F)(F)F)c(C(=O)N3CC(N4CCN(C(=O)c5cscn5)CC4)C3)sc2c1 [Cpd 712] | nM | 28
Cc1nc2cc(C(=O)N3CC(N4CCN(C(=O)c5ccccc5)CC4)C3)ccc2n1C1CCCCC1 [Cpd 37] | nM | 100
O=C(c1ccc(C2CCCCC2)cc1)N1CC(N2CCN(C(=O)c3ccco3)CC2)C1 [Cpd 2] | nM | 0.49
O=C(c1cc(F)cc(-c2ccccc2)c1)N1CC(N2CCN(C(=O)c3cscn3)CC2)C1 [Cpd 1273] | nM | 1830
O=C(c1ccc2c(ccn2-c2ccc(Cl)cn2)c1)N1CC(N2CCN(C(=O)c3nccs3)CC2)C1 [Cpd 1313] | nM | 3
Cc1cn(-c2ccc(F)cc2)c2ccc(C(=O)N3CCN(C4CN(C(=O)c5cscn5)C4)CC3)cc12 [Cpd 1230] | nM | 9
O=C(c1nccs1)N1CCN(C2CN(C(=O)c3sc4cc(-c5ccc(C(F)(F)F)cc5)ccc4c3F)C2)CC1 [Cpd 1063] | nM | 3
O=C(c1ccc(SCc2cccc(Cl)c2Cl)cc1)N1CC(N2CCN(C(=O)c3nccs3)CC2)C1 [Cpd 413] | nM | 2
O=C(c1ccc(Oc2ncc(C(F)(F)F)cc2Cl)cc1)N1CC(N2CCN(C(=O)c3cscn3)CC2)C1 [Cpd 720] | nM | 347
O=C(c1nccs1)N1CCN(C2CN(C(=O)c3nn(-c4ccc(Cl)cc4Cl)c4c3CSC/C4=C\c3ccc(F)cc3)C2)CC1 [Cpd 1021] | nM | 239
O=C(c1ccc(Oc2cccnc2)cc1)N1CC(N2CCN(C(=O)c3nccs3)CC2)C1 [Cpd 734] | nM | 1260
CCC(C)(C)c1ccc(C(=O)N2CC(N3CCN(C(=O)c4nccs4)CC3)C2)cc1 [Cpd 887] | nM | 9
O=C(c1ccc2c(c1)CCN2Cc1cccc(C(F)(F)F)c1)N1CC(N2CCN(C(=O)c3nccs3)CC2)C1 [Cpd 881] | nM | 6
Cc1c(C(=O)N2CC(N3CCN(C(=O)c4cscn4)CC3)C2)cccc1-c1ccccc1 [Cpd 1285] | nM | 2450
O=C(c1cccc(-c2cccc(F)c2)c1)N1CC(N2CCN(C(=O)c3cscn3)CC2)C1 [Cpd 1228] | nM | 1420
O=C(c1cc2cc(Cl)ccc2o1)N1CCN(C2CN(C(=O)c3nccs3)C2)CC1 [Cpd 785] | nM | 500
O=C(c1ccc2c(ccn2C(=O)c2ccc3c(c2)CCN3)c1)N1CC(N2CCN(C(=O)c3nccs3)CC2)C1 [Cpd 988] | nM | 40
O=C(c1ccc2c(ccn2-c2ccc(F)cc2)c1)N1CC(N2CCN(C(=O)c3cscn3)CC2)C1 [Cpd 1358] | nM | 7
CC1CN(C2CN(C(=O)c3cccc(-c4ccccc4)c3)C2)CCN1C(=O)c1nccs1 (centres unmarked) [Cpd 116] | nM | 2000
Cc1cc(-c2ccccc2)ccc1C(=O)N1CC(N2CCN(C(=O)c3nccs3)CC2)C1 [Cpd 1074] | nM | 11
COc1cccc2c(C)c(C(=O)N3CC(N4CCN(C(=O)c5cscn5)CC4)C3)[nH]c12 [Cpd 840] | nM | 2000
O=C(c1ccccc1)N1CCN(C2CN(C(=O)c3ccc(SCc4ccc(Cl)cc4)cc3)C2)CC1 [Cpd 418] | nM | 500
CC(C)n1c(C(F)(F)F)nc2cc(C(=O)N3CC(N4CCN(C(=O)c5ccccc5)CC4)C3)ccc21 [Cpd 38] | nM | 182

---

Some molecules, each annotated with its measured pKd.
target: mutant MGL (Homo sapiens, UniProt Q99685, L169S/L176S); assay: MGL ThermoFluor assay - mutant; type: binding; conditions: ThermoFluor concentration-response, read-out: MGL mutant ThermoFluor Kd
pKd: −log10 of the molar value.

molecule | cmp | pKd
O=C(c1ccc(-c2ccccc2)cc1)N1CC(N2CCN(C(=O)c3nccs3)C(c3ccccc3)C2)C1 (centres unmarked) | < | 4.51
O=C(c1nccs1)N1CCN(C2CN(C(=O)c3sc4ccc(Cl)cc4c3C(F)(F)F)C2)CC1 | = | 8.10
O=C(c1ccc(-c2ccccc2)cc1)N1CCN(C2CN(C(=O)c3cscn3)C2)C(c2ccccc2)C1 (centres unmarked) | = | 5.70
COc1ccc(-c2cccc(C(=O)N3CC(N4CCN(C(=O)c5nccs5)CC4)C3)c2)cc1 | = | 5.78
O=C(c1ccc(-c2ccc(Cl)cc2)cc1)N1CC(N2CCN(C(=O)c3nccs3)CC2)C1 | = | 8.46
O=C(c1ccc2c(c1)C(Cc1ccccc1)(Cc1ccccc1)C(=O)N2Cc1ccccc1)N1CC(N2CCN(C(=O)c3nccs3)CC2)C1 | = | 7.46
O=C(c1ccccc1)N1CCN(C2CN(C(=O)c3ccc(Oc4ncc(C(F)(F)F)cc4Cl)cc3)C2)CC1 | = | 6.50
O=C(c1ccc(-c2ccccc2)c(F)c1)N1CC(N2CCN(C(=O)c3cscn3)CC2)C1 | = | 7.22
